- target desc: T1, human CD20 on Raji B lymphoma cells (human, UniProt P11836 1-297)
- T1 construct: whole, on cells; also called hCD20
- T1 sequence (looked up): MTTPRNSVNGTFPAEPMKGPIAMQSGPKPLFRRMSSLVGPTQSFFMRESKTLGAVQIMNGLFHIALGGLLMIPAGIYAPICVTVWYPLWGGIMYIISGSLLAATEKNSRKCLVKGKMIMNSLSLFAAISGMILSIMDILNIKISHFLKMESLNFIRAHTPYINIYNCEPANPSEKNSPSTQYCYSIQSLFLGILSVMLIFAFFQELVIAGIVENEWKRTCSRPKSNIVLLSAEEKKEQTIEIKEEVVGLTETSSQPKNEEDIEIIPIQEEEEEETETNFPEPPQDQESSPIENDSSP
- protocol: flow cytometry on Raji cells, direct immunofluorescence with A488-labeled Ab, MFI against concentration, 5PL fit [panel A]
quantity kind: EC50 (µg/mL)
Answer format: numeric, µg/mL implied, no suffix.

Query block: Recorded EC50 for AC1 (chicken-derived anti-hCD20 mAb, chicken-human chimeric) (antibody, human IgG1, V domains shown, Atto 488 NHS-ester label on lysines in the direct immunofluorescence and mCD20 assays (positions not defined), Chicken VH fused to human CH1 and CH2-CH3 of human IgG1; chicken VL fused to human kappa constant domain; made in Expi293F cells; also called chAC1) VH: AVTLDESGGGLQTPGGGLSLVCKASGFDFSSYAMVWVRQAPGKGLEYVGEITNYAAGSGTWYGAAVKGRATISRDNGQSTVRLQLNNLRAEDTATYYCAKGPISGSIGYLSSIDAWGHGTEVIVSS VL: ALTQPSSVSANPGETVKITCSGGSSRYGYGWYQQKSPGSAPVTVIYWNDKRPSDIPSRFSGSKSGSTGTLTITGVRAEDEAVYYCGNYDNNDPAFGAGTTLTVL , please?
Result block: 2.5
